- target_entity: T1, human GPVI extracellular region-human Fc fusion protein (hGPVI-hFc) (human)
- T1 construct: Expressed in COS-1, purified on Protein A; also called GPVI-HHH-hFc; hGPVIHHH-hFc
- experimental_protocol: ELISA of hybridoma culture supernatant on coated hGPVI-hFc (selection criterion)
endpoint_label: absorbance

binder	result
F1249-3-2 (antibody, V domains shown) VH: EVQLVESGGGLVKPGGSLKLSCAASGFTFSSYGMSWVRQTPDKRLEWVATISSGGSYTYYSDSVKGRFTISRDNAKNNLYLQLSSLKSQDTAIYYCARDSGYFDYWGQGTTLTVSS VL: NIVLTQSPASLAVSLGQRATISCRASESVDSYGNSFMHWYQQKPGQPPKLLIYLASNLESGVPARFSGSGSRTDFTLTIDPVEADDAATYYCQQNNEDPRTFGGGTKLEIKR	≥ 1 absorbance
F1249-5-1 (antibody, V domains shown) VH: QVQLQQPGAELVKPGASVKLSCKASGYTFTSYWMHWLKQRPGQGLEWIGMIHPNSDITNYNEKFKNKATLTVAKSSSTAYMQLSSLTSEDSAVYYCARLGDYYAMDYWGQGTSVTVSS VL: SIVMTQTPKFLLVSAGDRVTITCKASQSVSNDVTWYQQKPGQSPKLLIYYASNRYTGVPDRFTGSGYGTDFTFTISTVQAEDLAVYFCQQDYSSPPTFGGGTKLEIKR	≥ 1 absorbance
F1249-30-1 (antibody, V domains shown) VH: QVQLQQSGAELVRPGVSVKISCKGSGYTFTDYAMHWVKQSHAKSLEWIGVISTYYGDTSYNQKFKGKAAMTVDKSSSTAYMELARLTSDDSAIYYCARAEDYDPWFAYWGQGTLVTVSA VL: DIVLTQSPASLAVSLGQRATISCRASESVDSYGNSFMHWYQQKPGQPPKLLIYRASNLESGIPARFSGSGSRTDFTLTINPVEADDVATYYCQQSDEDPLTFGAGTKLELKR	≥ 1 absorbance
